# target.under.test: 3-keto-steroid reductase/17-beta-hydroxysteroid dehydrogenase 7 (Homo sapiens) (UniProt P56937)
# run.conditions: HEK293, at 0.3 µM
# Description: Inhibition of human 17beta-HSD7 expressed in HEK293 cells assessed as inhibition of reduction of [14C]estrone into [14C]estradiol at 0.3 uM after 7 hrs
Label NOT MET if inhibition falls below 6%; label MET in every other case.

In plain terms: is recorded inhibition at least 6% for CCCCCCCCCCCCN(C(=O)c1cccc(CCl)c1)[C@H]1CC[C@H]2[C@@H]3CC[C@H]4N(C)C(=O)CC[C@]4(C)[C@H]3CC[C@]12C ? MET

In plain terms: is recorded inhibition at least 6% for CN1C(=S)CC[C@]2(C)[C@H]3CC[C@@]4(C)[C@@H](CC[C@@]45CCCC(=O)O5)[C@@H]3CC[C@@H]12 ? MET

In plain terms: is recorded inhibition at least 6% for C[C@]12CC[C@@H]3c4ccc(O)cc4CC[C@H]3[C@@H]1C[C@@H](CCBr)[C@@H]2O ? NOT MET

In plain terms: is recorded inhibition at least 6% for C[C@]12CC[C@@H]3c4ccc(O)cc4CC[C@H]3[C@@H]1CC[C@@]21CCC(=O)O1 ? NOT MET

In plain terms: is recorded inhibition at least 6% for C[C@]12CCC(=O)N[C@@H]1CC[C@@H]1[C@@H]2CC[C@]2(C)[C@@H](N(C(=O)c3ccccc3)c3ccccc3)CC[C@@H]12 ? MET

In plain terms: is recorded inhibition at least 6% for CC1(C)CC[C@@]2(CC[C@H]3[C@@H]4CCc5cc(OP(=O)(O)O)ccc5[C@H]4CC[C@@]32C)OC1=O ? NOT MET

In plain terms: is recorded inhibition at least 6% for CC(C)(C)NC(=O)[C@H]1CC[C@H]2[C@@H]3CC[C@H]4NC(=O)C=C[C@]4(C)[C@H]3CC[C@]12C ? NOT MET

----------
# target.under.test: 3-keto-steroid reductase/17-beta-hydroxysteroid dehydrogenase 7 (Homo sapiens)
# run.conditions: HEK293, at 3 µM
# Description: Inhibition of human 17beta-HSD7 expressed in HEK293 cells assessed as inhibition of reduction of [14C]estrone into [14C]estradiol at 3 uM after 7 hrs
quantity.kind: inhibition (%)
Output spec: scalar in %, unitless text.

Complete the entry with inhibition for CN(C(=O)NC1CCCCC1)[C@H]1CC[C@H]2[C@@H]3CC[C@H]4N(C)C(=O)CC[C@]4(C)[C@H]3CC[C@]12C 16.3

Complete the entry with inhibition for C[C@]12CC[C@H](O)C[C@@H]1CC[C@@H]1[C@@H]2CC[C@]2(C)C(=O)CC[C@@H]12 8.1

Complete the entry with inhibition for CCCCCN(C(=O)CCCC)[C@H]1CC[C@H]2[C@@H]3CC[C@H]4N(C)C(=O)CC[C@]4(C)[C@H]3CC[C@]12C 79.7

----------
# target.under.test: 3-keto-steroid reductase/17-beta-hydroxysteroid dehydrogenase 7 (Homo sapiens) (UniProt P56937)
# run.conditions: HEK293, at 3 µM
quantity.kind: inhibition (%)
Output spec: scalar in %, unitless text.

Complete the entry with inhibition for CC(C)NC(=O)N(C1CC1)[C@H]1CC[C@H]2[C@@H]3CC[C@H]4N(C)C(=O)CC[C@]4(C)[C@H]3CC[C@]12C 37.3

----------
# target.under.test: 3-keto-steroid reductase/17-beta-hydroxysteroid dehydrogenase 7 (Homo sapiens) (UniProt P56937)
# run.conditions: HEK293, at 3 µM
quantity.kind: inhibition (%)
Output spec: scalar in %, unitless text.

Previously resolved entries follow.
# chemical.structure, inhibition [%]
records = [
    ("CCCCCNC(=O)[C@H]1CC[C@H]2[C@@H]3CC[C@H]4N(C)C(=O)CC[C@]4(C)[C@H]3CC[C@]12C", 96.3),
    ("CN1C(=O)C=C[C@]2(C)[C@H]3CC[C@]4(C)[C@@H](N(C(=O)NC5CCCCC5)C5CC5)CC[C@H]4[C@@H]3CC[C@@H]12", 0.8),
    ("CN1C(=O)CC[C@]2(C)[C@H]3CC[C@]4(C)[C@@H](N(C=O)C5CCCCC5)CC[C@H]4[C@@H]3CC[C@@H]12", 75.2),
    ("CC1(C)CC[C@@]2(CC[C@H]3[C@@H]4CCc5cc(C#N)ccc5[C@H]4CC[C@@]32C)OC1=O", 34.6),
    ("CC1(C)CC[C@@]2(CC[C@H]3[C@@H]4CCc5c(cc(Cl)c(O)c5Cl)[C@H]4CC[C@@]32C)OC1=O", 37),
]

Complete the entry with inhibition for O=c1c(-c2ccc(O)cc2)coc2cc(O)cc(O)c12 0

Complete the entry with inhibition for C[C@]12CC[C@@H]3c4ccc(O)cc4CC[C@H]3[C@@H]1CCC2=O 10.1

Complete the entry with inhibition for C[C@]12CCC(=O)C[C@@H]1CC[C@@H]1[C@@H]2CC[C@]2(C)[C@@H](O)CC[C@@H]12 49.6

----------
# target.under.test: 3-keto-steroid reductase/17-beta-hydroxysteroid dehydrogenase 7 (Homo sapiens) (UniProt P56937)
# Sequence (whole entry): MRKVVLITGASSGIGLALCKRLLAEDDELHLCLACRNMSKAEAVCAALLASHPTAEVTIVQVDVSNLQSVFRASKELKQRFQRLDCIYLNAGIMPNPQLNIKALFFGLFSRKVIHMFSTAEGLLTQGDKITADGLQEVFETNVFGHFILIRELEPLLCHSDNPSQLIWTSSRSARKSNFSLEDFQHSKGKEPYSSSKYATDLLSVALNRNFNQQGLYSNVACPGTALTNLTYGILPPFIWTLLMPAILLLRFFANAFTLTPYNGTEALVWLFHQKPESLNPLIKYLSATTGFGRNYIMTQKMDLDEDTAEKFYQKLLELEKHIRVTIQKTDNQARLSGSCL
# run.conditions: HEK293, at 3 µM
// reported inhibition per item
Remember to put the unit after the number in your answer.

Previously resolved entries follow.
# chemical.structure, inhibition
records = [
    ("C[C@]12CC[C@H]3[C@@H](CCC4=CC(=O)CC[C@@]43C)[C@@H]1CC[C@@H]2O", "7.5%"),
    ("CN1C(=O)CC[C@]2(C)[C@H]3CC[C@]4(C)[C@@H](N(C=O)C5CC5)CC[C@H]4[C@@H]3CC[C@@H]12", "41.2%"),
]

Complete the entry with inhibition for CCCCN(C)C(=O)C[C@@H]1Cc2cc(O)ccc2[C@H]2CC[C@@]3(C)[C@@H](CC[C@@]34CCC(=O)O4)[C@H]12 15.5%

Complete the entry with inhibition for O=C(c1ccc(OCN2CCCCC2)cc1)c1c(-c2ccc(O)cc2)sc2cc(O)ccc12 0%

Complete the entry with inhibition for C[C@]12CC=C3c4ccc(O)cc4CC[C@H]3[C@@H]1CCC2=O 24%

Complete the entry with inhibition for CC(=O)[C@@]1(O)CC[C@H]2[C@@H]3CC=C4C[C@@H](O)CC[C@]4(C)[C@H]3CC[C@@]21C 4.1%

Complete the entry with inhibition for CN1C(=O)CC[C@]2(C)[C@H]3CC[C@@]4(C)[C@@H](CC[C@@]4(O)C#CC(C)(C)I)[C@@H]3CC[C@@H]12 72%

Complete the entry with inhibition for CN(C)C(=O)c1ccc2c(c1)CC[C@@H]1[C@@H]2CC[C@@]2(C)[C@H]1CC[C@@]21CCC(C)(C)C(=O)O1 36.1%

Complete the entry with inhibition for CCC(=C(c1ccc(O)cc1)c1ccc(OCCN(C)C)cc1)c1ccccc1 3%

Complete the entry with inhibition for CCCNC(=O)N(C1CC1)[C@H]1CC[C@H]2[C@@H]3CC[C@H]4N(C)C(=O)CC[C@]4(C)[C@H]3CC[C@]12C 41.5%

Complete the entry with inhibition for C[C@]12CC[C@@H]3c4ccc(S(N)(=O)=O)cc4CC[C@H]3[C@@H]1CCC2=O 6.1%

Complete the entry with inhibition for C[C@]12C[C@H](O)[C@H]3[C@@H](CCC4=CC(=O)CC[C@@]43C)[C@@H]1CC[C@@H]2C(=O)CO 14.9%

Complete the entry with inhibition for CC1(C)CC[C@@]2(CC[C@H]3[C@@H]4CCc5cc(OP(=O)(O)O)ccc5[C@H]4CC[C@@]32C)OC1=O 16.5%

Complete the entry with inhibition for CC(C)NC(=O)N(C1CC1)[C@H]1CC[C@H]2[C@@H]3CC[C@H]4N(C)C(=O)C=C[C@]4(C)[C@H]3CC[C@]12C 2.5%

Complete the entry with inhibition for C#C[C@]1(O)CC[C@H]2[C@@H]3CCc4cc(O)ccc4[C@H]3CC[C@@]21C 3.4%

Complete the entry with inhibition for C[C@]12CC[C@@H](O)C[C@H]1CC[C@@H]1[C@@H]2CC[C@]2(C)[C@@H](O)CC[C@@H]12 6%

Complete the entry with inhibition for C[C@]12CC[C@@H]3c4ccccc4CC[C@H]3[C@@H]1CC[C@@]21CCCC(=O)O1 4.7%

----------
# target.under.test: 3-keto-steroid reductase/17-beta-hydroxysteroid dehydrogenase 7 (Homo sapiens) (UniProt P56937)
# Sequence (whole entry): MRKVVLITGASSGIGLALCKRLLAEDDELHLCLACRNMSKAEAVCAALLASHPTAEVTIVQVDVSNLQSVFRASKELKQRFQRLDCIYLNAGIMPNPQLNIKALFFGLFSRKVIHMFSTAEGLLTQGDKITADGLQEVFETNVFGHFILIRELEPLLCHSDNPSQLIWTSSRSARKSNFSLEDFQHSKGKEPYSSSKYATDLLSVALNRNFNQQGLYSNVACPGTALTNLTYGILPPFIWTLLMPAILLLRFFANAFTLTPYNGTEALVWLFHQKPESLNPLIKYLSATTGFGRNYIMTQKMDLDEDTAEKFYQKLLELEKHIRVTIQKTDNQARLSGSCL
# run.conditions: HEK293, at 3 µM
Label f if inhibition falls below 20%; label t in every other case.

# chemical.structure, assigned.category
measured = [
    ("C[C@]12CCC(=O)C[C@@H]1CC[C@@H]1[C@@H]2[C@@H](O)C[C@@]2(C)[C@H]1CC[C@]2(O)C(=O)CO", "f"),
    ("CCN(C(=O)c1ccccc1)[C@H]1CC[C@H]2[C@@H]3CC[C@H]4N(C)C(=O)CC[C@]4(C)[C@H]3CC[C@]12C", "t"),
    ("CC(=O)[C@@]1(O)CC[C@H]2[C@@H]3CC[C@H]4CC(=O)CC[C@]4(C)[C@H]3CC[C@@]21C", "f"),
    ("C[C@]12CC[C@](O)(Cc3ccccc3)C[C@@H]1CC[C@@H]1[C@@H]2CC[C@]2(C)C(=O)CC[C@@H]12", "t"),
    ("CC(C)(O)C(=O)Nc1ccc([N+](=O)[O-])c(C(F)(F)F)c1", "f"),
    ("CC/C(=C(\\c1ccccc1)c1ccc(OCCN(C)C)cc1)c1ccccc1", "f"),
]

In plain terms: is recorded inhibition at least 20% for CN1C(=O)CC[C@]2(C)[C@H]3CC[C@]4(C)[C@@H](N5CCCC5=O)CC[C@H]4[C@@H]3CC[C@@H]12 ? f

In plain terms: is recorded inhibition at least 20% for CC1(C)CC[C@@]2(CC[C@H]3[C@@H]4CCc5cc(O)c(C(N)=O)cc5[C@H]4CC[C@@]32C)OC1=O ? t
